Sourced from patent US8883782B2

test system: Abeta 40 in cerebrospinal fluid (CSF) and brain; test: In vivo inhibition of beta-secretase (Abeta 40 reduction in CSF and brain); settings: rat, brain, Abeta 40, 3 mpk, after 4 hrs; read-out: Brain A-beta reduction % at 3 mpk
reported-endpoint: inhibition in vivo at 3 mg/kg (%)
Numbers only, in %.

Go through the list and state inhibition in vivo at 3 mg/kg for each entry.
1. NC1=N[C@@]2(CO1)c1cc(-c3c(F)ccnc3F)ccc1Oc1cnc(C3=CCCOC3)cc12
2. CC#Cc1cncc(-c2ccc3c(c2)[C@@]2(COC(N)=N2)c2cc(-c4cccnc4)nc(F)c2O3)c1

1: 74; 2: 43

---

target: Beta Secretase enzyme (BACE) (Homo sapiens, UniProt P56817); assay: In vitro enzymatic BACE FRET (fluorescence resonance energy transfer) assay; type: biochemical; settings: average IC50, enzyme assay; read-out: BACE 1 FRET assay
Sequence (P56817 46-501, species assumed): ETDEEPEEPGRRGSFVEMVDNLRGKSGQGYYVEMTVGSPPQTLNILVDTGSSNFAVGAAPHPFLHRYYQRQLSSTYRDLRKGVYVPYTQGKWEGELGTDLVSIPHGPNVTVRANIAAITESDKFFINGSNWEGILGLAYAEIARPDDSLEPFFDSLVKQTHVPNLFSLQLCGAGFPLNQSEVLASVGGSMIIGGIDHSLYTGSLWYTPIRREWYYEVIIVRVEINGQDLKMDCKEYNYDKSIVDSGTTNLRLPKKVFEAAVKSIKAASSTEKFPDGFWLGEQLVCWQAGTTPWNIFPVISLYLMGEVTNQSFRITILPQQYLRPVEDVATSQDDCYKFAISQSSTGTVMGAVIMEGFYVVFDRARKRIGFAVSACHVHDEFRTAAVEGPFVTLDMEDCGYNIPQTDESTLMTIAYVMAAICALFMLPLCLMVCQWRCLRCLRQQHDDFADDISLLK
reported-endpoint: IC50 (nM)
Give bare numbers, in nM.

Study these solved cases before continuing.
NC1=N[C@@]2(CO1)c1cc(-c3cnccn3)ccc1Oc1c(F)cc(C3CCOCC3)cc12 [Example 935] :: 6.6
C=CCN(C)c1cc(F)c2c(c1)[C@]1(COC(N)=N1)c1cc(-c3cccnc3F)ccc1O2 [Example 853] :: 4
CC1(COc2cc(F)c3c(c2)[C@@]2(CSC(N)=N2)c2cc(-c4cccnc4F)c(F)cc2O3)COC1 [Example 886] :: 475

Now for another entry.
# IC50 (compound: NC1=N[C@@]2(CO1)c1cc(-c3cncnc3)ccc1Oc1cnc(-c3cc(F)nc(F)c3)cc12 [Example 542] ) is 1.1

---

system: Aβ40 in conditioned medium of cells stably expressing Amyloid Precursor Protein (APP); experiment: In vitro BACE cell-based assay (Aβ40 in conditioned medium, sandwich ELISA); settings: Homo sapiens, HEK293, average IC50; read-out: HEK cell assay
reported-endpoint: pIC50
Give bare numbers, as −log10 of the molar value.

NC1=N[C@@]2(CO1)c1cc(-c3cccnc3F)ccc1Oc1c(F)cc(OCCF)cc12 :: 7.24

Dear reader, for each entry below, please note its pIC50.
1. CC#Cc1cncc(-c2ccc3c(c2)[C@@]2(COC(N)=N2)c2cc(OC)cc(F)c2O3)c1
2. COc1nc(C2CCCOC2)cc2c1Oc1ccc(-c3cccnc3F)cc1[C@@]21COC(N)=N1 (stereo partly shown)
3. CC(C)(C)C#Cc1cc2c(cn1)Oc1cc(F)c(-c3cncnc3)cc1[C@@]21COC(N)=N1

7.70
7.18
7.02

---

Target: Beta Secretase enzyme (BACE) (Homo sapiens)
Experiment: In vitro enzymatic BACE FRET (fluorescence resonance energy transfer) assay
Assay type: biochemical
Settings: average IC50, enzyme assay; read-out: BACE 1 FRET assay
Procedure: In Vitro Enzymatic Bace Fret (Fluorescence Resonance Energy Transfer) Assay (Enzyme Assay Data in the Example Table I) The assay buffer used in this screen is 0.05 M acetate, pH 4.2, 10% DMSO final, 100 uM genapol (which is a nonionic detergent, below its Critical Micelle Concentration). […] The FRET assay is terminated with by addition of Tris buffer, which raises the pH to neutrality, and the fluorescence is determined. […]
reported-endpoint: log10 IC50 (log10 of the value in nM)
Could you please treat all values as log10 of IC50 in nM?

Cc1ncc(-c2cc(F)c3c(c2)[C@]2(COC(N)=N2)c2cc(-c4ccc(F)nc4)ccc2O3)cn1 :: 1.30
NC1=N[C@@]2(CO1)c1cc(OCc3cccnc3)ccc1Oc1ncc(C3=CCOCC3)cc12 :: 1.53
COc1ccc(F)c(-c2ccc3c(c2)[C@@]2(COC(N)=N2)c2cc(N4CCOC(C)(C)C4)cnc2O3)c1 :: 0.43

Here are 7 molecules. What values of log10 IC50 were reported for them?
1. CC1(C)CC(c2cc3c(c(F)n2)Oc2ccc(-c4cccnc4F)cc2[C@@]32CSC(N)=N2)=CCO1
2. Cc1ccncc1-c1ccc2c(c1)[C@@]1(COC(N)=N1)c1cc(C3=CCOCC3)ncc1O2
3. NC1=N[C@@]2(CS1)c1cc(-c3cccnc3F)ccc1Oc1c2cc(-c2cccnc2F)nc1F
4. NC1=N[C@@]2(CS1)c1cc(-c3cccnc3F)ccc1Oc1cnc(N3CCOCC3)cc12
5. Cc1ccc(-c2cnc3c(c2)[C@]2(COC(N)=N2)c2cc(OCc4cccnc4)ccc2O3)cn1
6. COC[C@H]1SC(N)=NC12c1cc(-c3cccnc3F)ccc1Oc1cnc(-c3ccnc(F)c3)cc12 (single isomer, unassigned) [Example 1093]
7. NC1=N[C@]2(CS1)c1cc(-c3cccnc3)ccc1Oc1ncc(N3CCOCC3)cc12

[-0.15, 0.79, 0.00, -0.30, 1.72, 0.76, 3.36]

---

test system: Aβ40 in conditioned medium of cells stably expressing Amyloid Precursor Protein (APP); test: In vitro BACE cell-based assay (Aβ40 in conditioned medium, sandwich ELISA); details: Homo sapiens, HEK293, average IC50; read-out: HEK cell assay
Flag rule - IC50 less than 20 nM flags 1.0; the remaining entries get 0.0.

# example entries with known answers
COc1cccc(-c2ccc3c(c2)[C@@]2(COC(N)=N2)c2cc(C4=CCOCC4)cnc2O3)c1 [Example 322] :: 0.0
N#Cc1cc(-c2ccc3c(c2)[C@@]2(COC(N)=N2)c2cc(-c4ccnc(F)c4)cnc2O3)ccc1F [Example 786] :: 0.0
Cn1cc(-c2cc(F)c3c(c2)[C@]2(COC(N)=N2)c2cc(-c4ccc(F)nc4)ccc2O3)cn1 [Example 262] :: 1.0
NC1=N[C@@]2(CO1)c1cc(Oc3cccc(Cl)n3)ccc1Oc1c(F)cc(N3CCOCC3)cc12 [Example 1060] :: 0.0
CC#Cc1cncc(-c2ccc3c(c2)[C@@]2(CSC(N)=N2)c2cc(C#CC4(C)COC4)cnc2O3)c1 [Example 782] :: 1.0

For NC1=N[C@@]2(CO1)c1cc(-c3cccnc3F)ccc1Oc1c(F)cc(N3CCOCC3)cc12 [Example 139] , is the recorded IC50 below the cut-off of 20 nM? 1.0

A record lists CC#Cc1cncc(-c2ccc3c(c2)[C@@]2(COC(N)=N2)c2cc(C4=CCCOC4)nc(F)c2O3)c1 [Example 758] . Is its IC50 below 20 nM? 1.0

I wonder whether NC1=N[C@]2(CO1)c1cc(I)ccc1Oc1ncc(Br)cc12 [Example 1017] has IC50 below 20 nM. Can you tell? 0.0

---

Molecular target: Beta Secretase enzyme (BACE) (Homo sapiens)
Experiment: In vitro enzymatic BACE FRET (fluorescence resonance energy transfer) assay
Format: biochemical
Settings: average IC50, enzyme assay; read-out: BACE 1 FRET assay
Experimental: In Vitro Enzymatic Bace Fret (Fluorescence Resonance Energy Transfer) Assay (Enzyme Assay Data in the Example Table I) The assay buffer used in this screen is 0.05 M acetate, pH 4.2, 10% DMSO final, 100 uM genapol (which is a nonionic detergent, below its Critical Micelle Concentration). […] The FRET assay is terminated with by addition of Tris buffer, which raises the pH to neutrality, and the fluorescence is determined. […]
The label is TRUE for IC50 below 5 nM and FALSE for IC50 equal to or exceeding 5 nM.

N#Cc1cccc(-c2ccc3c(c2)[C@@]2(CSC(N)=N2)c2cc(C4=CCOCC4)cnc2O3)c1F :: TRUE
NC1=N[C@@]2(CO1)c1cc(-c3cc(F)cnc3F)ccc1Oc1cnc(-c3ccnc(F)c3)cc12 :: FALSE
CC1(COc2cc3c(cc2F)Oc2ccc(-c4cccnc4F)cc2[C@@]32COC(N)=N2)COC1 :: TRUE
NC1=N[C@@]2(CS1)c1cc(-c3cccnc3F)ccc1Oc1c(F)cc(N3CCC(F)(F)CC3)cc12 :: TRUE
CC1(COc2cc(F)c3c(c2)[C@]2(COC(N)=N2)c2cc(-c4cncc(C#N)c4)ccc2O3)COC1 :: TRUE
N#Cc1cncc(-c2ccc3c(c2)[C@@]2(COC(N)=N2)c2cc(C4=CCOCC4)cc(F)c2O3)c1 :: TRUE
CC1(C#Cc2cc3c(nc2F)Oc2ccc(-c4ccc(F)nc4)cc2[C@]32COC(N)=N2)COC1 :: FALSE
CC1(C#Cc2ccc3c(c2)[C@]2(COC(N)=N2)c2cc(-c4cncnc4)c(F)cc2O3)COC1 :: TRUE
NC1=N[C@@]2(CS1)c1cc(-c3cccnc3F)ccc1Oc1c2cc(C2=CCCCO2)nc1F :: TRUE
CC1(C)CCCN(c2cnc3c(c2)[C@]2(COC(N)=N2)c2cc(-c4cccnc4F)ccc2O3)C1 :: TRUE

Does the reported IC50 of COc1cncc(-c2ccc3c(c2)[C@@]2(COC(N)=N2)c2cc(C#CC4(C)COC4)cnc2O3)c1 stay below 5 nM? TRUE

For CC(C)(C)C#Cc1cc2c(nc1F)Oc1ccc(-c3cccnc3F)cc1C21COC(N)=N1 (centres unmarked) , is the recorded IC50 below the cut-off of 5 nM? TRUE
